# test-target: UniProt O88457
# Sequence (O88457 whole entry): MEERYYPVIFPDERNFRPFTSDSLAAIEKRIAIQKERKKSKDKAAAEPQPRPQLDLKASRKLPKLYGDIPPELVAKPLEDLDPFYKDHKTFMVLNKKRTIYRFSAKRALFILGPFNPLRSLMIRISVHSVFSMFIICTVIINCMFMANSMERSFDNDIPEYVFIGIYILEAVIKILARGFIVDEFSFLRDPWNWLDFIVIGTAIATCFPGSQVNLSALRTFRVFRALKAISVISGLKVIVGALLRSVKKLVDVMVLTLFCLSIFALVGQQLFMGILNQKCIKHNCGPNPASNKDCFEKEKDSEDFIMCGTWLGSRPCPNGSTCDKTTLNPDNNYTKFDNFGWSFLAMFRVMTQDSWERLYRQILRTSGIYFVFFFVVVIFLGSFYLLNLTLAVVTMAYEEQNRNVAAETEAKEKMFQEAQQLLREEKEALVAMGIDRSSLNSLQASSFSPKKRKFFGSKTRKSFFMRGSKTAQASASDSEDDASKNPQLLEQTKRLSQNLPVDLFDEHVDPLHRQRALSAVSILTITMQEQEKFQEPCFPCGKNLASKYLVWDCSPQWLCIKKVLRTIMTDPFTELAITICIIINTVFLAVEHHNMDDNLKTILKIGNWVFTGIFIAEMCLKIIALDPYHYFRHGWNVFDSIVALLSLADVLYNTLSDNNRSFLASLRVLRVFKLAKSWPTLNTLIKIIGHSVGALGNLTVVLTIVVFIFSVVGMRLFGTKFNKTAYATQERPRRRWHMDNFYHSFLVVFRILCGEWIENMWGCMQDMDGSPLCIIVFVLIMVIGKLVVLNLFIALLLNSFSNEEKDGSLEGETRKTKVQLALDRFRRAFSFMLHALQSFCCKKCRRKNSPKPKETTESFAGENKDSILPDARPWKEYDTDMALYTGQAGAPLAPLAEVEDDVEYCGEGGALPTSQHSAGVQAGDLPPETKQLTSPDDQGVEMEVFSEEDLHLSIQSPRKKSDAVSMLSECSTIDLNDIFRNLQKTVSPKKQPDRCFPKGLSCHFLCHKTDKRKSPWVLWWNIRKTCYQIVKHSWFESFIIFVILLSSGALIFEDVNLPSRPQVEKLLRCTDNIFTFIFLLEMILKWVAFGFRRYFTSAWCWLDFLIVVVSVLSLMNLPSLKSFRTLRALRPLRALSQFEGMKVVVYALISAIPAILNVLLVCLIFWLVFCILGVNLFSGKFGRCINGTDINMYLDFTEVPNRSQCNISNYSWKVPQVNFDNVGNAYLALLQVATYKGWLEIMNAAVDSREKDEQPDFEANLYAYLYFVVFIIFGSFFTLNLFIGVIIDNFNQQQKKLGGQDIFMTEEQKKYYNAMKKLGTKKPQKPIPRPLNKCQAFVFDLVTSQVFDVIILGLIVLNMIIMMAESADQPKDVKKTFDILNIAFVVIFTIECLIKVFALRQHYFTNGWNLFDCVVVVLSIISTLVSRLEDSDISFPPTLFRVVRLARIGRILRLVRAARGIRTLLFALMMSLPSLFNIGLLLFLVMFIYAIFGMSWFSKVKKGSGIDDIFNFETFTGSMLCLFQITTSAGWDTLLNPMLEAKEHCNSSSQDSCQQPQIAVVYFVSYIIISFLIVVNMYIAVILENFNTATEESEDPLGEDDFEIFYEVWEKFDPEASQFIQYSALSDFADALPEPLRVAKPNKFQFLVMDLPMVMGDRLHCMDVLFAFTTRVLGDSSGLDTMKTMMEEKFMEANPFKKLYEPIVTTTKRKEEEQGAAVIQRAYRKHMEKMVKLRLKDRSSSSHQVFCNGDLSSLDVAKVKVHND
# assay: whole-cell patch clamp of NaV1.9-mediated current
assay-endpoint: IC50 (µM)
Numbers only here, please. The scale is µM.

Per the record, C[C@]12CC[C@H](O)CC1=CC[C@@H]1[C@@H]2CC[C@]2(C)C(=O)CC[C@@H]12 [DHEA, dehydroepiandrosterone] has IC50 of 49.2
